The following binders are shown together with reported pKd values.
Molecular target: T1, EsCas13d, nuclease-dead (Eubacterium siraeum, UniProt B0MS50, R295A;H300A;R849A;H854A)
T1 sequence: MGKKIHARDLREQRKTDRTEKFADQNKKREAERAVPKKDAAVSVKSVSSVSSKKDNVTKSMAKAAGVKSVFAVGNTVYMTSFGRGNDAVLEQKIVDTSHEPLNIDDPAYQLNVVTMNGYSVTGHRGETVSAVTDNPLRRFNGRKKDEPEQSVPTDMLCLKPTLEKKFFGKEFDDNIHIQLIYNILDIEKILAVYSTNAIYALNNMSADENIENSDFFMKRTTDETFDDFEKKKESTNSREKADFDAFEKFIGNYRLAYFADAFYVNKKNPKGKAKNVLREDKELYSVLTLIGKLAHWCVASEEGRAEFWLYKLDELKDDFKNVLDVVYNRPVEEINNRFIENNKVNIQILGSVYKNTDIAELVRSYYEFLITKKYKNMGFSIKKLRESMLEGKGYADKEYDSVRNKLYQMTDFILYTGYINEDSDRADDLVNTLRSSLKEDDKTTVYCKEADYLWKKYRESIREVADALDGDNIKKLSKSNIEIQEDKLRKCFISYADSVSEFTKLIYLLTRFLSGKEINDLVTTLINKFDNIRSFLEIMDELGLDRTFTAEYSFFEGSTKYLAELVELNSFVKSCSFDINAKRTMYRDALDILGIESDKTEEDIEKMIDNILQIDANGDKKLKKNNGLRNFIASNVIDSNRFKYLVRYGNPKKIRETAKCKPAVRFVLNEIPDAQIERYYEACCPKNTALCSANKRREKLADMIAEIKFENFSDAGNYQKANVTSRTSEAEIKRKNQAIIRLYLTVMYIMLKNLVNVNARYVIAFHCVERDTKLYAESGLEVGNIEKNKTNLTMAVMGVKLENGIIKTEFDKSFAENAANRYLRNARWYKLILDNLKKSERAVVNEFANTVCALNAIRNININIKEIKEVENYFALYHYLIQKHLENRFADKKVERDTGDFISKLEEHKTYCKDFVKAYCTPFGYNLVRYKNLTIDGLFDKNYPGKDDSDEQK
Test: crRNA (strand 1, pre-loaded); Mg2+; 40 mM Tris-HCl pH 7.5, 150 mM NaCl, 6 mM MgCl2, 1 mM DTT, 0.1% Tween-20, 0.2 mg/ml BSA; 25 C; 10 min per concentration, then washed
Settings: tags: His6-TwinStrep-SUMO cleaved; N-terminal SNAP kept (SNAP-Surface 488); label: 3' end held by stalled T7 RNA polymerase
# reply with the number alone; pKd is -log10 of concentration in mol/L

target 1 insU 3' of 13,insG 3' of 10 (mixed) RNA 1: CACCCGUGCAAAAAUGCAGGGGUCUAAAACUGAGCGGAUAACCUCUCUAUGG RNA 2: GGGAAUGGAUCCACAUCUACGAAUUCGUACCAUAGAGAGUGUUGAUCCGCUCACCGAGAUCGGAAGAGCACACGU    7.20
target 3 insC 3' of 11 (mixed) RNA 1: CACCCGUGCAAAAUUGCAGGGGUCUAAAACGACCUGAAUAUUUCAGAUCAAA RNA 2: GGGAAUGGAUCCACAUCUACGAAUUCGUUUUUGAUCUGAAACUAUUCAGGUCUGCAGAUCGGAAGAGCACACGU    7.08
target 2 MT 5'PFS GCC 3'PFS UGC (mixed) RNA 1: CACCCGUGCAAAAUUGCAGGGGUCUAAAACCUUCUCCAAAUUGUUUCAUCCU RNA 2: GGGAAUGGAUCCACAUCUACGAAUUCGCCAGGAUGAAACAAUUUGGAGAAGUGCAGAUCGGAAGAGCACACGU    7.96
target 1 G5C,G13C (mixed) RNA 1: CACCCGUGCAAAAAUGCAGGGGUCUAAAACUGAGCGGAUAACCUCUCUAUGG RNA 2: GGGAAUGGAUCCACAUCUACGAAUUCGUACCAUAGAGACGUUAUCCCCUCACCGAGAUCGGAAGAGCACACGU    7.39
target 2 MT 5'PFS AGG 3'PFS CGA (mixed) RNA 1: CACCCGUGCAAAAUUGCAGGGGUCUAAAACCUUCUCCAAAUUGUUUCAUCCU RNA 2: GGGAAUGGAUCCACAUCUACGAAUUCAGGAGGAUGAAACAAUUUGGAGAAGCGAAGAUCGGAAGAGCACACGU    8.35

What does the data say about its pKd? Entry: target 3 insG 3' of 9,insC 3' of 5 (mixed) RNA 1: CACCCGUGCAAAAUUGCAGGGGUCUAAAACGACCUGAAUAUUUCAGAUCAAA RNA 2: GGGAAUGGAUCCACAUCUACGAAUUCGUUUUUGAUCUGAAAUAGUUCACGGUCUGCAGAUCGGAAGAGCACACGU
7.09

What does the data say about its pKd? Entry: target 1 U3G,C6A (mixed) RNA 1: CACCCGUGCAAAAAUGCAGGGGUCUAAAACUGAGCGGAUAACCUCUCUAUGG RNA 2: GGGAAUGGAUCCACAUCUACGAAUUCGUACCAUAGAGAGGUUAUCAGCGCACCGAGAUCGGAAGAGCACACGU
8.20

What does the data say about its pKd? Entry: target 1 A16G,G17C (mixed) RNA 1: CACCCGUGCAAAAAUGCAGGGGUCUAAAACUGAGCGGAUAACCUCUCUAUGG RNA 2: GGGAAUGGAUCCACAUCUACGAAUUCGUACCAUACGGAGGUUAUCCGCUCACCGAGAUCGGAAGAGCACACGU
7.12

The measurements presented in this section are drawn from paper PMC10786891.
